The values you see were collected from patent US20210292393A1.

Listing of recorded koff by entry.
- Tested On: T1, SARS-CoV-2 spike protein (SARS-CoV-2, UniProt P0DTC2 14-1208)
- T1 construct: also called SARS-CoV-2 S protein; antigen of interest
- Procedure Summary: HT-SPR, Carterra LSA; mAb coupled to chip, antigen injected; 1:1 fit
Numbers only here, please. The scale is s⁻¹.

Endpoint output: koff of antibody 559 (antibody, V domains shown) VH: QVQLQESGPGLVKLSETLSLTCTVSGYSISSGYYWGWIRQPPGKGLEWIGSIYHSGSTYYNPSLKSRVTISVDTSKNQFSLKLSSVTAADTAVYYCAREETLGSSWYESYIDYWGQGTLVTVSS VL: SYVLTQPPSVSVAPGKTARITCGGNNIGSKSVHWYQQKPGQAPVLVIYYDSDRPSGIPERFSGSNSGNTATLTISRVEAGDEADYYCQVWDSSSDHPRVFGGGTKLTVL . Value?
0.000631

Please answer likewise for antibody 530 (antibody, V domains shown, also called mAb 530) VH: EVQLVESGGGLVQPGGSLRLSCAASGFTFSSYWMSWVRQAPGKGLEWVANIKQDGSEKYYVDSVKGRFTISRDNAKNSLYLQMNSLRAEDTAVYYCAREPQLWSEYYFDYWGQGTLVTVSS VL: DIQMTQSPSSLSASVGDRVTITCRASQGISSWLAWYQQKPEKAPKSLIYAASSLQSGVPSRFSGSGSGTDFTLTISSLQPEDFATYYCQQYNSYPPTFGQGTRLEIK
0.000209

Entry antibody 501 (antibody, V domains shown) VH: QVQLVQSGAEVKKPGASVKVSCKASGYTFTSYYVHWVRQAPGQSLEWMGVISPSTGSTTYAQNFQGRVTMTRDTSTTTVYMELSSLRSEDTAVYYCARDDYYDSTRYFDLWGRGTLVTVSS VL: QSALTQPASVSGSPGQSISFSCTGTSSDIGAYNYVSWYQQHPGRAPKLMIYDVGNRPSGVSNRFSGSKSGNTASLTISGLQAEDEADYYCSSYTSSSTQVFGTGTKVTVL please
0.000261

More entries:
Consider the binder antibody 585 (antibody, V domains shown) VH: QVQLVESGGGVVQPGRSLRLSCAASGFTFATYAMHWVRQAPGKGLEWVALISHDGSNKHYADSVKGRFTISRDNSKKTLYLQMNSLRAEGTAIYYCARESLEAAAPPFDYWGQGTLVTVSS VL: SYELTQPPSVSVSPGQTATIICSGDKLGEKYASWYQQKPGQSPALVIYQDRKRPSGIPERFSGSNSGNTATLTISGTQAMDEADYYCQAWDSSNSVVFGGGTKLTVP and give its measured koff.
4.59e-05

Subsequent entry: antibody 506 (antibody, V domains shown) VH: QITLKESGPTLVKPTQTLTLTCTFSGFSLSTSGVGVGWIRQPPGKALEWLALIYWDDDKRYSPSLKSRLTITKDTSKNQVVLTMTNMDPVDTATYYCAHHSLSSIFDYWGQGTLVTVSS VL: QSALTQPASVSGSPGQSITISCTGTSSDVGDYNYVSWYQQHPGKAPKLMIYEVSNRPSGVSNRFSGSKSGNTASLTISGLQAEDEADYYCSSYTSSSTVFGGGTKLTVLG
0.00021

Okay, and antibody 552 (antibody, V domains shown) VH: QVQLVQSGAEVKKPGSSVKVSCKASGGTFSSYGISWVRQAPGQGLEWMGRIIPILGIANYAQKFQGRVTITADKSTSTAYMELSSLRSEDTAVYYCARAVYAAGDDDYYYYYGMDVWGQGTTVTVSS VL: SYELTQPPSVSVSPGQTARITCSGDALPKQYAYWYQQKPGQAPVVVIYKDSDRPSGIPERFSGSSSGTTVTLTISGVQAEDEADYYCQSADSSGTYQVFGTGTKVSVL ?
1.01e-05

Same lookup for antibody 558 (antibody, V domains shown) VH: QVQLVESGGGVVQPGRSLRLSCAASGFTFSSYAMHWVRQAPGKGLEWVAVISYDGSNKYYADSVKGRFTISRDNSKNTLYLQMNSLRAEDTAVYYCARGQGGGYYYGMDVWGQGTTVTVSS VL: QSALTQPASVSGSPGQSITISCTGTSSDVGGYNYVSWYQQHPGKAPKLMIYDVSNRPSGVSNRFSGSKSGNTASLTISGLQAEDEADYYCSSYTSSSTLYVFGTGTKVTVL , please.
8.94e-05

Okay, and antibody 562 (antibody, V domains shown) VH: QVQLVESGGGVVQPGRSLRLSCAASGFTFSSYAMHWVRQAPGKGLEWVAVISYDGSNKYYADSVKGRFTISRDNSKNTLYLQMNSLRAEDTAVYYCARASSGGYQGPFDPWGQGTLVTVSS VL: QSALTQPASVSGSPGQSITISCTGTSSDVGGYNYVSWYQQHPGKAPKLMIYDVSNRPSGVSNRFSGSKSGNTASLTISGLQAEDEADYYCSSYTSSSTLLYVFGTGTKVTVLG ?
1.16e-05

Let us now turn to antibody 528 (antibody, V domains shown, also called mAb 528) VH: QVQLVQSGAEVKKPGSSVKVSCKASGGTFNSNSISWVRQAPGQGLEWMGRIIPILDITMYARKFQGRVTISADKSTGTAYMDLSSLRSEDTAVYYCATDRDDSSGDYYYGMDVWGQGTTVTVSS VL: DIQMTQSPSSLSASVGDRVTITCRASLSISNYLNWYQQKPGKAPNLLIYAASTLQSGVPSRFSGSGSGTDFTLTISSLQPEDFATYYCQQTYITRWTFGQGTKVEIK
0.000285

Try this binder next: antibody 554 (antibody, V domains shown) VH: QVQLVESGGGVVQPGRSLRLSCAASGFTFSSYAMHWVRQAPGKGLEWVAVISYDGSNKYYADSVKGRFTISRDNSKNTLYLQMNSLRAEDTAVYYCARPQGGNYYYYGMDVWGQGTTVTVSS VL: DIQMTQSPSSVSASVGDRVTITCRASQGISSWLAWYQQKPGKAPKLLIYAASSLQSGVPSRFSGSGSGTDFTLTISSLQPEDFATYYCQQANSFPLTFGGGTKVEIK
3.5e-05
